- Tested on: U-251
- assay.text: NCI tumour cell line growth inhibition, 48 h
Calls of active or inactive are those of the source. Rule as the data show it: active = GI50 up to about 1.1 µM and inactive = higher.
Outcome field: choose from active, inactive

Worked set:
[[record]]
molecule = "C[C@@H]1Nc2cc(NC(=O)OCCF)nc(N)c2N=C1c1ccccc1"
class_label = "active"

[[record]]
molecule = "C=Cc1ccccc1C1C(C(=O)OCC)=C(C)N=C2OC(C(=O)OC)C(=O)N21 (stereo not given)"
class_label = "inactive"

[[record]]
molecule = "O=C1NCC2(CCN(CCCC3(c4ccc(F)cc4)OCCO3)CC2)N1c1ccccc1"
class_label = "inactive"

[[record]]
molecule = "Nc1cnc2c(c1)c(=O)nc1n2CCS1"
class_label = "inactive"


Now for another entry.
Query string: Please indicate how the test categorized C=C[C@]1(C)CC[C@]2(C)C(CC[C@@]3(C)C2C[C@H](O)[C@H](O)[C@@]3(C)O)C1 (stereo not given in full) .
Result string: inactive

---

- Test system: EKVX
- assay.text: NCI tumour cell line growth inhibition, 48 h
Active and inactive are the calls of the source. No stated cut-off is given here; in the data, active = GI50 up to about 1.1 µM and inactive = higher.
measured.attribute: GI50

Worked cases, answers included:
[[record]]
compound = "O=C(O)c1ccc(C=C2Sc3ccccc3S2)cc1"
test_system = "EKVX"
assay_value = "45 µM (inactive)"

[[record]]
compound = "CCCOP1(=O)C=C(C)C(Cl)=C(C)C1 (stereo not drawn)"
test_system = "EKVX"
assay_value = "74.3 µM (inactive)"

[[record]]
compound = "CN1CCCCCC(=N\\O)/C(=N/O)CCCCC1"
test_system = "EKVX"
assay_value = "> 100 µM (inactive)"

[[record]]
compound = "Clc1ccc(C(n2cc(Br)cn2)n2cc(Br)cn2)cc1"
test_system = "EKVX"
assay_value = "19.7 µM (inactive)"

[[record]]
compound = "COc1ccc(C(=O)C#Cc2cnc(OC)nc2OC)cc1"
test_system = "EKVX"
assay_value = "1.83 µM (inactive)"

[[record]]
compound = "COc1cc(O)c(C(=O)/C=C/c2ccccc2)c(OC)c1"
test_system = "EKVX"
assay_value = "10.4 µM (inactive)"

[[record]]
compound = "C/C(CC(O)(C(F)(F)F)C(F)(F)F)=N\\O"
test_system = "EKVX"
assay_value = "> 10 µM (inactive)"

[[record]]
compound = "Cc1cc(-c2nc3c(O)cccc3s2)ccc1N"
test_system = "EKVX"
assay_value = "20.2 µM (inactive)"


I'm hoping you can list GI50 for every compound here, please.
1. CN(C)CCCNc1ncnc2c1ncn2C1OC(CO)C(O)C1O (stereo not drawn)
2. O=C1NC(=O)/C(=C\c2ccncc2)N1
3. O=C(CCc1ccc(O)cc1)NCCc1cccc(OCc2ccccc2)c1
4. O=C1/C(=C/c2ccccc2)CN(C(=O)CCN2CCCC2)C/C1=C\c1ccccc1
5. c1ccc2c(c1)[nH]c1c[nH]c3c4cccnc4nc-3c12
6. Cc1ccccc1/N=N/c1c(O)c(S(=O)(=O)O)cc2cc(S(=O)(=O)O)ccc12
7. CCCC1C(CC)C(NC)C(C#N)(C#N)C1(C#N)C#N (stereo not drawn)
8. COC(=O)C(=O)C(C(=O)C(=O)Nc1cc([N+](=O)[O-])ccc1C#N)c1nc2ccccc2nc1O (stereo not drawn)

Result string:
["> 100 µM (inactive)", "> 100 µM (inactive)", "31.5 µM (inactive)", "2.49 µM (inactive)", "19.9 µM (inactive)", "> 100 µM (inactive)", "25.2 µM (inactive)", "35.5 µM (inactive)"]

I'm hoping you can list GI50 for every compound here, please.
1. O=C(CC(=O)N1N=C(N(c2ccccc2)c2ccccc2)CC1c1ccccc1)Nc1ccccc1 (stereo not drawn)
2. COc1cc(/C=C/c2cc(=O)cc(/C=C/c3ccc(O)c(OC)c3)o2)ccc1O
3. CC[C@@]1(O)C(=O)OCc2c1cc1n(c2=O)Cc2c-1nc1ccccc1c2CC[Si](C)(C)C
4. COC12c3ccccc3-c3ccccc3C1[C@@H](C(=O)O)[C@H]2C(=O)O (stereo partly drawn)
5. Cc1c(/C=N/N(C)C)oc2c1cc(O)c1ncccc12

Result string:
1. > 100 µM (inactive)
2. > 70 µM (inactive)
3. 0.0671 µM (active)
4. > 10 µM (inactive)
5. 2.11 µM (inactive)

I'm hoping you can list GI50 for every compound here, please.
1. O=C(O)Cc1ccc(/N=N/c2c(O)c(C(=O)O)cc3ccccc23)cc1
2. CCCCCc1cc2cc3c(c(O)c2c(=O)[nH]1)C1(CCC3)C(=O)c2c(O)ccc(O)c2C1=O

Result string:
> 100 µM (inactive)
> 100 µM (inactive)

---

- Tested on: LOX IMVI
- assay.text: NCI tumour cell line growth inhibition, 48 h
The source made the active and inactive calls. Cut-off read from the data, not from the text of the source: active = GI50 up to about 1.1 µM and inactive = higher.
Outcome field: choose from active, inactive

Worked set:
[[record]]
compound = "CC1(C(O)c2ccccc2)CN(C(C)(C)C)C(=O)/C1=C\\Sc1ccccc1 (centres undefined)"
class_label = "inactive"

[[record]]
compound = "O=c1[nH]cnc2c1sc1nc3ccccc3n12"
class_label = "inactive"

[[record]]
compound = "CCC(C)CN1C(=O)NC(Cc2ccccc2)C1=O (centres undefined)"
class_label = "inactive"

[[record]]
compound = "CC(=O)NC1C(OCc2ccccc2)OC(CO)C(O)C1OC(C)C(=O)N[C@@H](C)C(=O)N[C@H](CCC(=O)NCCNCCNc1c2ccccc2nc2cccc([N+](=O)[O-])c12)C(N)=O (some centres undefined)"
class_label = "active"


Query string: Please indicate how the test categorized `Cc1cc(C)c2c(O)cc(-c3ccc(Cl)cc3)nc2n1` .
Result string: inactive

Query string: Please indicate how the test categorized `N#Cc1c(-c2ccccc2)nc(-c2ccccc2)sc1=S` .
Result string: inactive

Query string: Please indicate how the test categorized COC(=O)C1=C(c2cc(OC)c(OC)c(OC)c2)OC(c2ccc(OC)c(OC)c2)C1 (centres undefined) .
Result string: inactive

Query string: Please indicate how the test categorized `O=C1C([P+](c2ccccc2)(c2ccccc2)c2ccccc2)=C([O-])C(=Cc2ccc(Cl)c(Cl)c2)C([O-])=C1[P+](c1ccccc1)(c1ccccc1)c1ccccc1` .
Result string: active

Query string: Please indicate how the test categorized `Cc1ccccc1/N=N/c1ccc(N/N=C2/CCCNC2=O)c(C)c1` .
Result string: inactive

---

- System: MDA-MB-231
- assay.text: NCI tumour cell line growth inhibition, 48 h
Calls of active or inactive are those of the source. Cut-off read from the data, not from the text of the source: active = GI50 up to about 1.1 µM and inactive = higher.
Outcome field: choose from yes = active, no = inactive

[[record]]
compound = "CCOC(=O)C1CCCCN1CCc1c[nH]c2ccccc12 (stereo unspecified)"
class_label = "no"

[[record]]
compound = "BrC(c1cccc2ccccc12)c1cccc2ccccc12"
class_label = "no"

[[record]]
compound = "O=[N+]([O-])c1cc(Cl)c(Cl)cc1[N+](=O)[O-]"
class_label = "no"


Query string: Please indicate how the test categorized `COc1ccc(NS(=O)(=O)c2ccc(NC(NC(=O)CC(C)C)(C(F)(F)F)C(F)(F)F)cc2)nn1` .
Result string: no

Query string: Please indicate how the test categorized `COc1ccc(Nc2nc3c([nH]2)c(=O)n(C)c(=O)n3C)cc1` .
Result string: no

Query string: Please indicate how the test categorized `CC(C)[Si](OC1=CCC[C@H]2NC(=O)[C@@H](Cc3ccccc3)[C@@]12C)(C(C)C)C(C)C` .
Result string: no

Query string: Please indicate how the test categorized `O=C(N/N=C(COc1ccc(Cl)cc1)\N=C\c1ccncc1)c1ccncc1` .
Result string: no

Query string: Please indicate how the test categorized `Cc1ccc(Cc2nnc(S)[nH]2)cc1` .
Result string: no

Query string: Please indicate how the test categorized `O=c1cnn(C/C=C/CO)c(=O)[nH]1` .
Result string: no

---

Assign GI50 to each entry below.
- Test system: LOX IMVI
- assay.text: NCI tumour cell line growth inhibition, 48 h
Active and inactive are the calls of the source. Cut-off read from the data, not from the text of the source: active = GI50 up to about 1.1 µM and inactive = higher.

[[record]]
compound = "COC1=NCc2ccccc2-c2ccccc21"
measured_attribute = "GI50"
assay_value = "> 100 µM (inactive)"


I'm hoping you can list GI50 for every compound here, please.
1. COc1cccc(/C=N/[N-]C(=S)Nc2ccccc2)c1[O-].O.[Zn+2]
2. O=C(Nc1ccc(Cl)cc1Cl)/C(Cl)=C1/Sc2ccccc2NC1=O
3. COC(=O)NNC(=O)OC.COC(=O)Nc1ccccc1NC(=O)OC.COC(=O)Oc1nn(C(=O)OC)c(=O)c2ccccc12
4. CO/C(=N\N=C\c1cc(OC)ccc1OC)c1ccncc1
5. CN1CCCCCC(=N\O)/C(=N/O)CCCCC1

Result string:
1. 53.7 µM (inactive)
2. 40.6 µM (inactive)
3. > 100 µM (inactive)
4. > 10 µM (inactive)
5. > 100 µM (inactive)

I'm hoping you can list GI50 for every compound here, please.
1. O=C1c2ccccc2CN1c1ccc(O)cc1
2. Cc1cc(-c2nc3c(O)cccc3s2)ccc1N
3. C=Cc1ccccc1C1C(C(=O)OCC)=C(C)N=C2OC(C(=O)OC)C(=O)N21 (stereo unspecified)
4. COc1ccc(SCc2cc(OCc3ccccc3)c(OCc3ccccc3)c(OCc3ccccc3)c2)cc1
5. O=C(CCc1ccc(O)cc1)NCCc1cccc(OCc2ccccc2)c1

Result string:
["> 100 µM (inactive)", "17.3 µM (inactive)", "> 100 µM (inactive)", "1.54 µM (inactive)", "15.6 µM (inactive)"]
